# System: SF-268 CNS
# procedure.summary: NCI-60 one-dose screen, 48 h (100 = growth as untreated, 0 = no growth, -100 = all killed)
# experimental.parameters: 10 µM unless noted
Compounds without any hit were thinned out: in the full panel of roughly 83,000, 20% have a hit.
quantity.kind: growth (%)
The response must be a number in % with no trailing unit.

chemical.string: O=C(CCCCCCNC(=O)C(O)(O)C(F)(F)F)Nc1ncc(-c2ccccc2)s1
target.of.assay: SF-268 CNS
readout.unit: %
growth: 1.35
--
chemical.string: N#Cc1c(-c2cccs2)cc(-c2cnccn2)nc1SCC(=O)N/N=C/c1cccs1
target.of.assay: SF-268 CNS
readout.unit: %
growth: 53.7
--
chemical.string: O=C1[C@@H]2Cc3c([nH]c4ccccc34)[C@@H](c3ccc(Cl)cc3)N2C(=O)CN1C1CCN(Cc2c(F)cccc2F)CC1
target.of.assay: SF-268 CNS
readout.unit: %
growth: 39.2

Give the reported value of growth for this record: `COC(=O)CCSC1=C(C)C(=O)c2ccccc2C1=O`
97.4

Give the reported value of growth for this record: `CCOC(=O)c1cnc2c(-c3ccc(Cl)c(Cl)c3)cnn2c1`
92.7
